Tested on: A. baumannii 1318
Format: cell-based, Acinetobacter baumannii
Residues, ends and D or L forms follow the SMILES beside them.
Answer each item with its documented MIC Gram- A. b 1318.

Specify MIC Gram- A. b 1318 for CC[C@H](C)[C@H](NC(=O)[C@H](CCCNC(=N)N)NC(=O)[C@H](CCCNC(=N)N)NC(=O)[C@H](CC(C)C)NC(=O)[C@H](Cc1ccccc1)NC(=O)[C@H](Cc1ccccc1)NC(=O)[C@H](Cc1ccccc1)NC(=O)[C@@H](N)Cc1ccccc1)C(=O)N[C@@H](Cc1ccccc1)C(=O)N[C@@H](CCCNC(=N)N)C(N)=O [F-SHf(R^5)-R] (H-FFFFLRRIFR-NH2; N-terminus assumed) and stop.
12.5 µM

Specify MIC Gram- A. b 1318 for CC[C@H](C)[C@H](NC(=O)[C@H](CCCNC(=N)N)NC(=O)[C@H](CO)NC(=O)[C@H](CC(C)C)NC(=O)[C@H](Cc1ccccc1)NC(=O)[C@H](Cc1ccccc1)NC(=O)[C@H](Cc1ccccc1)NC(=O)[C@H](Cc1ccc(O)cc1)NC(=O)[C@@H](N)Cc1ccc(O)cc1)C(=O)N[C@@H](Cc1ccccc1)C(N)=O [YY-SHf] (H-YYFFFLSRIF-NH2; N-terminus assumed) and stop.
> 100 µM

Specify MIC Gram- A. b 1318 for CC[C@H](C)[C@H](NC(=O)[C@H](CCCNC(=N)N)NC(=O)[C@H](CCC(=O)O)NC(=O)[C@H](CC(C)C)NC(=O)[C@H](Cc1ccccc1)NC(=O)[C@H](Cc1ccccc1)NC(=O)[C@@H](N)Cc1ccccc1)C(=O)N[C@@H](Cc1ccccc1)C(N)=O [SHf(E^5)] (H-FFFLERIF-NH2; N-terminus assumed) and stop.
> 100 µM

* * *

METHOD_SUMMARY: MTT cytotoxicity assay
Type: cell-based, human
CONDITION_DETAILS: human, HEK293T cells, OD450, cytotoxicity (Fig 2a), replicates
Residues, ends and D or L forms follow the SMILES beside them.
Answer each item with its documented viability at 72 h, 1.57 µM.
The figure you give is taken to be in %; do not add the unit.

Specify viability at 72 h, 1.57 µM for CC[C@H](C)[C@H](NC(=O)[C@H](CCCNC(=N)N)NC(=O)[C@H](CCCNC(=N)N)NC(=O)[C@H](CC(C)C)NC(=O)[C@H](Cc1ccccc1)NC(=O)[C@@H](N)CCCNC(=N)N)C(=O)N[C@@H](Cc1ccccc1)C(=O)N[C@@H](CCCCN)C(=O)N[C@@H](Cc1ccccc1)C(=O)N[C@@H](Cc1ccccc1)C(=O)N[C@@H](Cc1ccccc1)C(N)=O [HT5] (H-RFLRRIFKFFF-NH2) and stop.
62.7

Specify viability at 72 h, 1.57 µM for CC[C@H](C)[C@H](NC(=O)[C@H](CCCNC(=N)N)NC(=O)[C@H](CCCNC(=N)N)NC(=O)[C@H](CC(C)C)NC(=O)[C@H](Cc1ccccc1)NC(=O)[C@H](Cc1ccccc1)NC(=O)[C@H](Cc1ccccc1)NC(=O)[C@@H](N)Cc1ccccc1)C(=O)N[C@@H](Cc1ccccc1)C(=O)N[C@@H](CCCNC(=N)N)C(N)=O [F-SHf(R^5)-R] (H-FFFFLRRIFR-NH2; N-terminus assumed) and stop.
12.3

* * *

System: MRSA ATCC 43300
Assay type: cell-based, Staphylococcus aureus
CONDITION_DETAILS: ATCC 43300
Residues, ends and D or L forms follow the SMILES beside them.
Answer each item with its documented MIC Gram+ MRSA ATCC 43300.
The figure you give is taken to be in µM; do not add the unit.

Specify MIC Gram+ MRSA ATCC 43300 for CC[C@H](C)[C@H](NC(=O)[C@H](CCCNC(=N)N)NC(=O)[C@H](CO)NC(=O)[C@H](CC(C)C)NC(=O)[C@H](Cc1ccccc1)NC(=O)[C@H](Cc1ccccc1)NC(=O)[C@H](Cc1ccccc1)NC(=O)[C@H](Cc1ccccc1)NC(=O)[C@@H](N)Cc1ccccc1)C(=O)N[C@@H](Cc1ccccc1)C(N)=O [FF-SHf] (H-FFFFFLSRIF-NH2; N-terminus assumed) and stop.
50

Specify MIC Gram+ MRSA ATCC 43300 for CC[C@H](C)[C@H](NC(=O)[C@H](CCCNC(=N)N)NC(=O)[C@H](CCCNC(=N)N)NC(=O)[C@H](CC(C)C)NC(=O)[C@H](Cc1ccccc1)NC(=O)[C@H](Cc1ccccc1)NC(=O)[C@H](Cc1ccccc1)NC(=O)[C@@H](N)Cc1ccccc1)C(=O)N[C@@H](Cc1ccccc1)C(=O)N[C@@H](CCCNC(=N)N)C(N)=O [F-SHf(R^5)-R] (H-FFFFLRRIFR-NH2; N-terminus assumed) and stop.
1.57
